B1: Membrane-associated guanylate kinase, WW and PDZ domain-containing protein 1, residues 352 to 401; numbered along this chain, Q96QZ7 (parent)
chain: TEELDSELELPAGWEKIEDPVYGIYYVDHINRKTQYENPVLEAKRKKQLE

Variants of: B1
assay_notes: abundance fitness (aPCA) (normalised: wild type 0, dead -1); higher = more abundant; growth selection in yeast, the domain comes from the species named
run_parameters: Homo sapiens
Please go through the items and note down their abundance fitness.
No unit in the answer, only the number.

Request: Entry under review: P39I . Reported abundance fitness?
Result: -1.04

Request: And for N38H ?
Result: 0.171

Request: Then this variant: K16L
Result: -0.447

Request: Also N31I , if possible.
Result: -0.802

Request: Then V21E ?
Result: 0.063

Request: Same read-out for A12T ?
Result: -0.145

Request: Same question, K47L this time
Result: -0.008

Request: Entry to check: D19W
Result: -1.03

Request: What do we get for Y25S ?
Result: -0.119

Request: Another variant to check: P11L
Result: -0.35

Request: Here is the next variant: L8W
Result: -0.12

Where these numbers come from: the Human Domainome abundance scans (Beltran et al. 2025)
